target: Human IMPDH type II (Homo sapiens); construct: Dr. George D. Markham, Institute for Cancer Research, Fox Chase Cancer Center, Fox Chase, Pa; test: Inhibition of human IMPDH type II by TAD analogues; type: biochemical; details: IMPDH type II; read-out: Kis (binding)
PROPERTY: Ki (nM)

{"columns": ["COMPOUND", "TEST_SYSTEM", "Ki / nM"],
 "data": [
  ["NC(=O)c1csc([C@@H]2O[C@H](COP(=O)(O)OP(=O)(O)OC[C@H]3O[C@@H](n4cnc5c(N)ncnc54)[C@H](F)[C@@H]3O)[C@@H](O)[C@H]2O)n1", "Human IMPDH type II (Homo sapiens)", 500]
]}

A. NC(=O)c1csc([C@@H]2O[C@H](COP(=O)(O)OP(=O)(O)OC[C@H]3O[C@@H](n4cnc5c(N)ncnc54)[C@@H](F)[C@@H]3O)[C@@H](O)[C@H]2O)n1
B. NC(=O)c1csc([C@@H]2O[C@H](COP(=O)(O)OP(=O)(O)OC[C@H]3O[C@@H](n4cnc5c(N)ncnc54)[C@H](O)[C@@H]3F)[C@@H](O)[C@H]2O)n1
Query: Just tell me: smaller Ki value, A or B ? // caller expects the label of the chosen entry
Reply: B
(B: 700 nM, A: 2900 nM)
